# credit: ChEMBL document CHEMBL4308923

Target: Toll-like receptor 2 (Homo sapiens, UniProt O60603)
Sequence (O60603 whole entry): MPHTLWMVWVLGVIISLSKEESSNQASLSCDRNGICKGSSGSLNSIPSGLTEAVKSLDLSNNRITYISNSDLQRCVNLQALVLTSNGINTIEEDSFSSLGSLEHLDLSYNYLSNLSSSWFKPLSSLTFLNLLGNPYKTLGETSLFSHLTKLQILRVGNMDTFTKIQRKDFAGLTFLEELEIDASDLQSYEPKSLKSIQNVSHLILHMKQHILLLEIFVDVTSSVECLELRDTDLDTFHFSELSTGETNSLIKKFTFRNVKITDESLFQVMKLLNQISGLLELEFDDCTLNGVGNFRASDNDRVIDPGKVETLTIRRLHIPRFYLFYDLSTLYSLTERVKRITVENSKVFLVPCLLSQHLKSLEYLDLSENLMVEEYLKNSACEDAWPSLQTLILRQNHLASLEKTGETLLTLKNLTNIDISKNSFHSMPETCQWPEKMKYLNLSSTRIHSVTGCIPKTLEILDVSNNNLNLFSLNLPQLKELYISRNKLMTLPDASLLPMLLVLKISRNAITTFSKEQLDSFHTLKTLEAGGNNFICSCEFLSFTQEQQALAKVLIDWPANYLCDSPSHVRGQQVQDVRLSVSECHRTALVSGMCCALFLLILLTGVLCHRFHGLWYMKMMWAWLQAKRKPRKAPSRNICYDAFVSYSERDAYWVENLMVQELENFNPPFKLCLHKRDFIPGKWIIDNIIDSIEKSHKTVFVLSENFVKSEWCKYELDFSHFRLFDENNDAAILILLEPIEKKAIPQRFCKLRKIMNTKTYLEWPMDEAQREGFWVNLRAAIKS
Test: Agonist activity at human TLR2 expressed in HEK-Blue cells harboring NFkB promoter-driven secreted alkaline phosphatase assessed as induction of NFkB after 12 hrs by spectrophotometric assay
Format: cell-based
RECORDED_METRIC: pEC50
In plain terms, pEC50 is the concentration in mol/L turned into minus its base-10 logarithm.

Example entries and their recorded answers appear below.
[[record]]
compound = "CC1CCc2cc(F)cc3c(O)c(C(=O)NCc4cccnc4N(C)C)c(=O)n1c23 (stereo not given)"
readout_value = 5.49

[[record]]
compound = "CC1CCc2cc(F)cc3c(O)c(C(=O)NCc4cncc(F)c4)c(=O)n1c23 (stereo not given)"
readout_value = 6.00

[[record]]
compound = "CC1CCc2cc(F)cc3c(O)c(C(=O)NCc4ccc(Cl)nc4)c(=O)n1c23 (stereo not given)"
readout_value = 5.30

[[record]]
compound = "Cc1ccncc1CNC(=O)c1c(O)c2cc(F)cc3c2n(c1=O)C(C)CC3 (stereo not given)"
readout_value = 5.84


Let's switch to this compound now.
Q: # get_value(readout='pEC50', item= CC1CCc2cc(F)cc3c(O)c(C(=O)NC4CCc5ncccc54)c(=O)n1c23 (stereo not given) )
Result: 5.52

###

Target: Toll-like receptor 2 (Homo sapiens, UniProt O60603)
Assay: Agonist activity at human TLR2 expressed in HEK-Blue cells harboring NFkB promoter-driven secreted alkaline phosphatase assessed as induction of NFkB after 12 hrs by spectrophotometric assay
Type: cell-based
Active and inactive are the calls of the source. No cut-off for these calls is given here.
Respond using exactly one of the listed classes: yes (1) (active), no (0) (inactive)

Take a look at these entries with their results.
[[record]]
compound = "CC1CCc2cc(F)cc3c(O)c(C(=O)NCc4cnc5ccccc5c4)c(=O)n1c23 (stereo not given)"
label_value = "no (0)"

[[record]]
compound = "CC1CCc2cc(F)cc3c(O)c(C(=O)NCC4CCCCN4)c(=O)n1c23 (stereo not given)"
label_value = "no (0)"

[[record]]
compound = "Cc1ccc(S(=O)(=O)N2CCC[C@H]2C(=O)N2c3ccc(F)cc3CC[C@@H]2C)cc1"
label_value = "yes (1)"

[[record]]
compound = "CC1CCc2cc(F)cc3c(O)c(C(=O)NCc4ccc5c(c4)OCO5)c(=O)n1c23 (stereo not given)"
label_value = "no (0)"

[[record]]
compound = "CC1CCc2cc(F)cc3c(O)c(C(=O)NCC4CCCN(C)C4)c(=O)n1c23 (stereo not given)"
label_value = "no (0)"


Q: For this compound, state the assay outcome: CC1CCc2cc(F)cc3c(O)c(C(=O)NCC4CCN(C)C4)c(=O)n1c23 (stereo not given)
Result: no (0)

Q: Further, for CC1CCc2cc(F)cc3c(O)c(C(=O)NCc4ccnn4C)c(=O)n1c23 (stereo not given) ?
Result: no (0)

Q: Now the same for CC1CCc2cc(F)cc3c(O)c(C(=O)NCc4cccc5[nH]ccc45)c(=O)n1c23 (stereo not given)
Result: no (0)

Q: Item: "C[C@H]1CCc2cc(F)cc3c(O)c(C(=O)NCc4cncc(F)c4)c(=O)n1c23"
Result: yes (1)

Q: Follow-up item: CC1CCc2cc(F)cc3c(O)c(C(=O)NCc4ccncc4)c(=O)n1c23 (stereo not given)
Result: no (0)

Q: Do the same for CC1CCc2cc(F)cc3c(O)c(C(=O)NCc4ccc(N(C)C)nc4)c(=O)n1c23 (stereo not given) please
Result: no (0)

Q: Another: "C[C@H]1CCc2cc(F)cc3c(O)c(C(=O)NCc4cccnc4)c(=O)n1c23"
Result: yes (1)

Q: CC1CCc2cc(F)cc3c(O)c(C(=O)NCc4nc5ccccc5[nH]4)c(=O)n1c23 (stereo not given) ?
Result: no (0)

###

Target: UniProtKB O60603
Assay: Agonist activity at human TLR2 expressed in HEK-Blue cells harboring NFkB promoter-driven secreted alkaline phosphatase assessed as induction of NFkB after 12 hrs by spectrophotometric assay
Type: cell-based
Active and inactive are the calls of the source. The calls are words filed in the database; no cut-off is given here.
Hi! Could you answer with just one of these? y for active, n for inactive

Example entries and their recorded answers appear below.
[[record]]
compound = "COc1cc(CNC(=O)c2c(O)c3cc(F)cc4c3n(c2=O)C(C)CC4)ccn1 (configuration not stated)"
label_value = "n"

[[record]]
compound = "C[C@@H]1CCc2cc(F)cc3c(O)c(C(=O)NCc4ccc(N)nc4)c(=O)n1c23"
label_value = "y"

[[record]]
compound = "Cc1ccc(S(=O)(=O)N2CCC[C@H]2C(=O)N2c3ccc(F)cc3CC[C@H]2C)cc1"
label_value = "y"

[[record]]
compound = "CC1CCc2cc(F)cc3c(O)c(C(=O)NCc4n[nH]c5ccccc45)c(=O)n1c23 (configuration not stated)"
label_value = "n"

[[record]]
compound = "C[C@@H]1CCc2cc(F)ccc2N1"
label_value = "y"


Moving on to the next compound.
Q: Recorded call for CC1CCc2cc(F)cc3c(O)c(C(=O)NCc4cccs4)c(=O)n1c23 (configuration not stated) ?
Result: n
